Each entry below carries its reported pKi.
# STUDY_SYSTEM: μ-opioid receptor (Homo sapiens, UniProt P35372)
# PROCEDURE_TEXT: Radioligand competition binding, displacement of [3H]DAMGO
Where a SMILES comes first, the peptide text is derived from it. [ ]: non-standard residue; d: D form. d(β3hP) = O=C(O)C[C@H]1CCCN1; β3hP = O=C(O)C[C@@H]1CCCN1
Please report pKi as the negative decimal logarithm of the molar concentration, giving only the number.

MOLECULE: NC(=O)[C@@H]1CCCN1C(=O)[C@H](Cc1ccccc1)NC(=O)C[C@H]1CCCN1C(=O)[C@@H](N)Cc1ccc(O)cc1 [Compound 7b, H–Tyr–(R)-HPro–Phe–Pro–NH2] (H-Y[d(β3hP)]FP-NH2)
RECORDED_RESULT: 7.52
--
MOLECULE: NC(=O)[C@H](Cc1ccccc1)NC(=O)[C@H](Cc1ccccc1)NC(=O)C[C@H]1CCCN1C(=O)[C@@H](N)Cc1ccc(O)cc1 [Compound 6b, H–Tyr–(R)-HPro–Phe–Phe–NH2]
RECORDED_RESULT: 6.53
--
MOLECULE: NC(=O)[C@@H]1CCCN1C(=O)[C@H](Cc1ccccc1)NC(=O)C[C@@H]1CCCN1C(=O)[C@@H](N)Cc1ccc(O)cc1 [Compound 7a, H–Tyr–(S)-HPro–Phe–Pro–NH2] (H-Y[β3hP]FP-NH2)
RECORDED_RESULT: 5.21
--
MOLECULE: NC(=O)[C@H](Cc1ccccc1)NC(=O)[C@H](Cc1ccccc1)NC(=O)C[C@@H]1CCCN1C(=O)[C@@H](N)Cc1ccc(O)cc1 [Compound 6a, H–Tyr–(S)-HPro–Phe–Phe–NH2]
RECORDED_RESULT: 7.24

Proceeding to the next molecule to report its pKi.
Problem: Kindly state the measured pKi obtained for NC(=O)[C@H](Cc1ccccc1)NC(=O)[C@H](Cc1ccccc1)NS(=O)(=O)C[C@@H]1CCCN1C(=O)[C@@H](N)Cc1ccc(O)cc1 [Compound 6c, H–Tyr–(S)-HPrs–Phe–Phe–NH2] with μ-opioid receptor (Homo sapiens, UniProt P35372).
Result: 7.00

====

Form field: Ki (one value per entry).
# STUDY_SYSTEM: δ-opioid receptor (Homo sapiens)
# PROCEDURE_TEXT: Radioligand competition binding, displacement of [3H]DPDPE
Where a SMILES comes first, the peptide text is derived from it. [ ]: non-standard residue; d: D form. d(β3hP) = O=C(O)C[C@H]1CCCN1; β3hP = O=C(O)C[C@@H]1CCCN1

Look over these answered cases.
MOLECULE: NC(=O)[C@@H]1CCCN1C(=O)[C@H](Cc1ccccc1)NC(=O)C[C@H]1CCCN1C(=O)[C@@H](N)Cc1ccc(O)cc1 [Compound 7b, H–Tyr–(R)-HPro–Phe–Pro–NH2] (H-Y[d(β3hP)]FP-NH2)
Ki: > 10 µM
--
MOLECULE: NC(=O)[C@H](Cc1ccccc1)NC(=O)[C@H](Cc1ccccc1)NC(=O)C[C@H]1CCCN1C(=O)[C@@H](N)Cc1ccc(O)cc1 [Compound 6b, H–Tyr–(R)-HPro–Phe–Phe–NH2]
Ki: > 10 µM

Okay, now this molecule:
Problem: Entry NC(=O)[C@@H]1CCCN1C(=O)[C@H](Cc1ccccc1)NC(=O)C[C@@H]1CCCN1C(=O)[C@@H](N)Cc1ccc(O)cc1 [Compound 7a, H–Tyr–(S)-HPro–Phe–Pro–NH2] (H-Y[β3hP]FP-NH2) , system δ-opioid receptor (Homo sapiens): what Ki was measured?
Result: > 10 µM

====

# STUDY_SYSTEM: μ-opioid receptors (GPI)
# PROCEDURE_TEXT: GPI/LMMP in vitro tissue bioassay
# CONDITIONS_USED: read-out: Bioassay GPI (IC50); ± S.E.M.
Where a SMILES comes first, the peptide text is derived from it. [ ]: non-standard residue; d: D form. d(β3hP) = O=C(O)C[C@H]1CCCN1; β3hP = O=C(O)C[C@@H]1CCCN1
REPORTED_METRIC: IC50 (µM)
The figure you give is taken to be in µM; do not add the unit.

COMPOUND: NC(=O)[C@@H]1CCCN1C(=O)[C@H](Cc1ccccc1)NC(=O)C[C@H]1CCCN1C(=O)[C@@H](N)Cc1ccc(O)cc1 [Compound 7b, H–Tyr–(R)-HPro–Phe–Pro–NH2] (H-Y[d(β3hP)]FP-NH2)
IC50 [µM]: 0.017

Now let's try a different one.
Problem: Quick check: IC50 of NC(=O)[C@@H]1CCCN1C(=O)[C@H](Cc1ccccc1)NC(=O)C[C@@H]1CCCN1C(=O)[C@@H](N)Cc1ccc(O)cc1 [Compound 7a, H–Tyr–(S)-HPro–Phe–Pro–NH2] (H-Y[β3hP]FP-NH2) ?
Result: 1.1

====

# STUDY_SYSTEM: κ-opioid receptor (Homo sapiens)
Where a SMILES comes first, the peptide text is derived from it. [ ]: non-standard residue; d: D form. d(β3hP) = O=C(O)C[C@H]1CCCN1
REPORTED_METRIC: Ki

MOLECULE: NC(=O)[C@@H]1CCCN1C(=O)[C@H](Cc1ccccc1)NC(=O)C[C@H]1CCCN1C(=O)[C@@H](N)Cc1ccc(O)cc1 [Compound 7b, H–Tyr–(R)-HPro–Phe–Pro–NH2] (H-Y[d(β3hP)]FP-NH2)
Ki: 10 µM

# ---- query molecule ----
Problem: Return reported Ki; argument: NC(=O)[C@H](Cc1ccccc1)NC(=O)[C@H](Cc1ccccc1)NC(=O)C[C@H]1CCCN1C(=O)[C@@H](N)Cc1ccc(O)cc1 [Compound 6b, H–Tyr–(R)-HPro–Phe–Phe–NH2]
Result: 10 µM

====

Where a SMILES comes first, the peptide text is derived from it. [ ]: non-standard residue; d: D form. β3hP = O=C(O)C[C@@H]1CCCN1
Recorded pKi values (κ-opioid receptor (Homo sapiens)) are given below.
The meaning of pKi here: minus log10 of the concentration in molar units.

MOLECULE: NC(=O)[C@H](Cc1ccccc1)NC(=O)[C@H](Cc1ccccc1)NS(=O)(=O)C[C@@H]1CCCN1C(=O)[C@@H](N)Cc1ccc(O)cc1 [Compound 6c, H–Tyr–(S)-HPrs–Phe–Phe–NH2]
pKi: 5.32

Problem: Reported pKi for κ-opioid receptor (Homo sapiens), given NC(=O)[C@H](Cc1ccccc1)NC(=O)[C@H](Cc1ccccc1)NC(=O)C[C@@H]1CCCN1C(=O)[C@@H](N)Cc1ccc(O)cc1 [Compound 6a, H–Tyr–(S)-HPro–Phe–Phe–NH2] ?
Result: 6.00

Problem: And then NC(=O)[C@@H]1CCCN1C(=O)[C@H](Cc1ccccc1)NC(=O)C[C@@H]1CCCN1C(=O)[C@@H](N)Cc1ccc(O)cc1 [Compound 7a, H–Tyr–(S)-HPro–Phe–Pro–NH2] (H-Y[β3hP]FP-NH2) , what is it?
Result: 5.36
